Data credit: ChEMBL document CHEMBL3286385

I'd appreciate it if you could supply UI values for the items below.
# System: Rattus norvegicus
# assayProtocol: Gastric toxicity in rat assessed as ulcer index at 0.28 mmol/kg, po
# Type: organism-based
# assayConditions: in vivo
One number for each entry.

For the 4 compounds below, give their UI values.
1. NC(=O)c1nc(-c2ccccc2)n(-c2ccc(S(N)(=O)=O)cc2)n1
2. COc1ccc(NC(=O)c2nc(-c3ccccc3)n(-c3ccc(S(N)(=O)=O)cc3)n2)cc1
3. NNC(=O)c1nc(-c2ccccc2)n(-c2ccc(S(N)(=O)=O)cc2)n1
4. CC(C)NC(=O)c1nc(-c2ccccc2)n(-c2ccc(S(N)(=O)=O)cc2)n1

1. 2
2. 2.3
3. 3
4. 0

Give the measured UI of CC(=O)c1ccc(NC(=O)c2nc(-c3ccccc3)n(-c3ccc(S(N)(=O)=O)cc3)n2)cc1 . 0.5
